Ref: the supplement of paper PMC11246515

assay: total protein half-life in vivo (active degradation + dilution); higher = more stable protein
measurementConditions: wild type E. coli NCM3722; growth: C-lim chemostat; doubling time 3 h
quantityMeasured: total protein half-life in vivo (h)

recordsequence="MTDKLTSLRQYTTVVADTGDIAAMKLYQPQDATTNPSLILNAAQIPEYRKLIDDAVAWAKQQSNDRAQQIVDATDKLAVNIGLEILKLVPGRISTEVDARLSYDTEASIAKAKRLIKLYNDAGISNDRILIKLASTWQGIRAAEQLEKEGINCNLTLLFSFAQARACAEAGVFLISPFVGRILDWYKANTDKKEYAPAEDPGVVSVSEIYQYYKEHGYETVVMGASFRNIGEILELAGCDRLTIAPALLKELAESEGAIERKLSYTGEVKARPARITESEFLWQHNQDPMAVDKLAEGIRKFAIDQEKLEKMIGDLL [P0A870]" readoutnumber=3.45
recordsequence="MIKKIGVLTSGGDAPGMNAAIRGVVRSALTEGLEVMGIYDGYLGLYEDRMVQLDRYSVSDMINRGGTFLGSARFPEFRDENIRAVAIENLKKRGIDALVVIGGDGSYMGAMRLTEMGFPCIGLPGTIDNDIKGTDYTIGFFTALSTVVEAIDRLRDTSSSHQRISVVEVMGRYCGDLTLAAAIAGGCEFVVVPEVEFSREDLVNEIKAGIAKGKKHAIVAITEHMCDVDELAHFIEKETGRETRATVLGHIQRGGSPVPYDRILASRMGAYAIDLLLAGYGGRCVGIQNEQLVHHDIIDAIENMKRPFKGDWLDCAKKLY [P0A796]" readoutnumber=3
recordsequence="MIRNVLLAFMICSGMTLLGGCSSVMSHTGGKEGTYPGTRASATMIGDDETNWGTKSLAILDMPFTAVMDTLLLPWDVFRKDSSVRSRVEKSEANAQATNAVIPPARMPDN [P0ADM4]" readoutnumber=2.6
recordsequence="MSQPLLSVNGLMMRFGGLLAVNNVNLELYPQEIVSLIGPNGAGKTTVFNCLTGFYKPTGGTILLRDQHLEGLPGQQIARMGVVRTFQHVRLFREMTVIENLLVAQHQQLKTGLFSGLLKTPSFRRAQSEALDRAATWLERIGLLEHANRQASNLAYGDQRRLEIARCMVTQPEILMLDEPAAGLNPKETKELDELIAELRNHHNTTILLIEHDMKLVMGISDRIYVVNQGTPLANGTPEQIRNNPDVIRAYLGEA [P0A9S7]" readoutnumber=3.12
recordsequence=MKIVIAPDSFKESLSAEKCCQAIKAGFSTLFPDANYICLPIADGGEGTVDAMVAATGGNIVTLEVCGPMGEKVNAFYGLTGDGKTAVIEMAAASGLMLVAPEKRNPLLASSFGTGELIRHALDNDIRHIILGIGGSATVDGGMGMAQALGVRFLDADGQALAANGGNLARVASIEMDECDPRLANCHIEVACDVDNPLVGARGAAAVFGPQKGATPEMVEELEQGLQNYARVLQQQTEINVCQMAGGGAAGGMGIAAAVFLNADIKPGIEIVLNAVNLAQAVQGAALVITGEGRIDSQTAGGKAPLGVASVAKQFNVPVIGIAGVLGDGVEVVHQYGIDAVFSILPRLAPLAEVLASGETNLFNSARNIACAIKIGQGIKN readoutnumber=3.05
recordsequence=MYTLNWQPPYDWSWMLGFLAARAVSSVETVADSYYARSLAVGEYRGVVTAIPDIARHTLHINLSAGLEPVAAECLAKMSRLFDLQCNPQIVNGALGRLGAARPGLRLPGCVDAFEQGVRAILGQLVSVAMAAKLTARVAQLYGERLDDFPEYICFPTPQRLAAADPQALKALGMPLKRAEALIHLANAALEGTLPMTIPGDVEQAMKTLQTFPGIGRWTANYFALRGWQAKDVFLPDDYLIKQRFPGMTPAQIRRYAERWKPWRSYALLHIWYTEGWQPDEA readoutnumber=2.32
recordsequence="MTIHKKGQAHWEGDIKRGKGTVSTESGVLNQQPYGFNTRFEGEKGTNPEELIGAAHAACFSMALSLMLGEAGFTPTSIDTTADVSLDKVDAGFAITKIALKSEVAVPGIDASTFDGIIQKAKAGCPVSQVLKAEITLDYQLKS [P0C0L2]" readoutnumber=3.08
recordsequence="MKKVAIVGLGWLGMPLAMSLSARGWQVTGSKTTQDGVEAARMSGIDSYLLRMEPELVCDSDDLDALMDADALVITLPARRSGPGDEFYLQAVQELVDSALAHRIPRIIFTSSTSVYGDAQGTVKETTPRNPVTNSGRVLEELEDWLHNLPGTSVDILRLAGLVGPGRHPGRFFAGKTAPDGEHGVNLVHLEDVIGAITLLLQAPKGGHIYNICAPAHPARNVFYPQMARLLGLEPPQFRNSLDSGKGKIIDGSRICNELGFEYQYPDPLVMPLE [P0AD12]" readoutnumber=3.06
recordsequence="MISSLWIAKTGLDAQQTNMDVIANNLANVSTNGFKRQRAVFEDLLYQTIRQPGAQSSEQTTLPSGLQIGTGVRPVATERLHSQGNLSQTNNSKDVAIKGQGFFQVMLPDGSSAYTRDGSFQVDQNGQLVTAGGFQVQPAITIPANALSITIGRDGVVSVTQQGQAAPVQVGQLNLTTFMNDTGLESIGENLYTETQSSGAPNESTPGLNGAGLLYQGYVETSNVNVAEELVNMIQVQRAYEINSKAVSTTDQMLQKLTQL [P0ABX5]" readoutnumber=1.53
recordsequence=MVINCAFIGFGKSTTRYHLPYVLNRKDSWHVAHIFRRHAKPEEQAPIYSHIHFTSDLDEVLNDPDVKLVVVCTHADSHFEYAKRALEAGKNVLVEKPFTPTLAQAKELFALAKSKGLTVTPYQNRRFDSCFLTAKKAIESGKLGEIVEVESHFDYYRPVAETKPGLPQDGAFYGLGVHTMDQIISLFGRPDHVAYDIRSLRNKANPDDTFEAQLFYGDLKAIVKTSHLVKIDYPKFIVHGKKGSFIKYGIDQQETSLKANIMPGEPGFAADDSVGVLEYVNDEGVTVREEMKPEMGDYGRVYDALYQTITHGAPNYVKESEVLTNLEILERGFEQASPSTVTLAK readoutnumber=3.04
